Tested on: MAPK14
Parameters: species or system human, MV4-11 + K-562 + COLO205 + SK-N-BE2 + OVCAR-8
measurementParameters: read-out: apparent Kd; compound concentrations:100 nM and 1000 nM (sheet 'Samples'); n = 1
attributeMeasured: potency estimated from few doses

compound: O=C(Nc1n[nH]c2cc(-c3ccsc3)ccc12)C1CC1
targetOfAssay: MAPK14
obsValue: 1560 nM
//
compound: N#CCn1c(=O)c(Oc2ccc(F)cc2F)cc2cnc(NC3CCOCC3)nc21
targetOfAssay: MAPK14
obsValue: 3.79 nM
//
compound: Nc1nc(N)c2nc(-c3ccccc3)[nH]c2n1
targetOfAssay: MAPK14
obsValue: 973 nM
//
compound: Cl.Oc1ccc2ncnc(Nc3ccc(OCc4ccccc4)cc3)c2c1 [GI262866A]
targetOfAssay: MAPK14
obsValue: 770 nM
//
compound: NCC1CNC(=O)c2cc3ccc(C(=O)Nc4cccnc4)cc3n2C1 (centres unmarked)
targetOfAssay: MAPK14
obsValue: 1320 nM
//
compound: Fc1ccc(-c2ncn(C3CCNCC3)c2-c2ccnc(Oc3ccc(F)c(F)c3)n2)cc1
targetOfAssay: MAPK14
obsValue: 395 nM
//
compound: COc1cccc(-c2nc(-c3ccccc3)[nH]c2-c2ccncc2)c1
targetOfAssay: MAPK14
obsValue: 1050 nM
//
compound: CN1CCC(C(=O)Nc2n[nH]c3nnc(-c4ccccc4)cc23)CC1.Cl
targetOfAssay: MAPK14
obsValue: 1690 nM
//
compound: Cc1ccc(NC(=O)c2ccnc(N3CCCCC3)c2)cc1-c1ccc(C(=O)NCC2CC2)cc1 [GW775610X]
targetOfAssay: MAPK14
obsValue: 199 nM
//
compound: Cl.Cn1c(=O)c(Oc2ccccc2F)cc2cnc(NC3CCOCC3)nc21
targetOfAssay: MAPK14
obsValue: 58.4 nM
//
compound: O=C(Nc1n[nH]c2nc(-c3ccccc3)c(Br)cc12)C1CC1
targetOfAssay: MAPK14
obsValue: 1640 nM

###

System: JAK2
Set-up: species or system human, MV4-11 + K-562 + COLO205 + SK-N-BE2 + OVCAR-8
measurementParameters: read-out: apparent Kd; compound concentrations:100 nM and 1000 nM (sheet 'Samples'); n = 1

compound: Cc1ccc(-n2nc(C(C)(C)C)cc2NC(=O)Nc2ccc(OCCN3CCOCC3)cc2)cc1 [BIRB0876BS]
readingUnit: nM
potency estimated from few doses: 748
//
compound: Cl.Cn1c(=O)c(Oc2ccc(F)cc2F)cc2cnc(NC3CCS(=O)(=O)CC3)nc21 [RO3308271-001]
readingUnit: nM
potency estimated from few doses: 494
//
compound: O=C(Nc1cccnc1)c1cc(-c2ccnc(F)c2)ccc1OCc1ccccc1 [GSK2578215]
readingUnit: nM
potency estimated from few doses: 322

###

System: MYLK3
Set-up: species or system human, MV4-11 + K-562 + COLO205 + SK-N-BE2 + OVCAR-8
measurementParameters: read-out: apparent Kd; compound concentrations:100 nM and 1000 nM (sheet 'Samples'); n = 1
attributeMeasured: potency estimated from few doses

compound: CC(C)Nc1cc(-c2ccc3c(N)n[nH]c3c2)nc(N)n1 [GSK2221681A]
attributeMeasured: potency estimated from few doses
obsValue: 1410 nM

compound: CNc1cc(-c2ccc3c(N)n[nH]c3c2)nc(N)n1 [GSK2224810A]
attributeMeasured: potency estimated from few doses
obsValue: 457 nM

compound: NS(=O)(=O)c1ccc(N/N=C2\C(=O)Nc3ccc(C(=O)NCCc4c[nH]cn4)cc32)cc1 [GW300660X]
attributeMeasured: potency estimated from few doses
obsValue: 735 nM

compound: COc1cc[nH]c1/C=C1\C(=O)Nc2ccc(F)c(C#C[C@@H](O)[C@@H](N)[C@@H](C)O)c21
attributeMeasured: potency estimated from few doses
obsValue: 827 nM

compound: O=C(Nc1n[nH]c2nc(-c3ccccc3O)ccc12)C1CC1
attributeMeasured: potency estimated from few doses
obsValue: 219 nM

compound: COc1ccc2[nH]c3c4[nH]c5ccc(OC)cc5c4c4c(c3c2c1)C(=O)NC4=O [GW296115X]
attributeMeasured: potency estimated from few doses
obsValue: 834 nM

compound: CNC(=O)c1ccccc1Nc1nc(Nc2ccc(N3CCOCC3)cc2)ncc1Cl.Cl [GSK1576028A]
attributeMeasured: potency estimated from few doses
obsValue: 786 nM

compound: Cc1cccc(Nc2nc(N[C@H]3CCNC3)ncc2C(N)=O)c1.Cl [GSK2197149A]
attributeMeasured: potency estimated from few doses
obsValue: 2040 nM

compound: Nc1nccc(-c2ccc3c(N)n[nH]c3c2)n1 [GSK1034945A]
attributeMeasured: potency estimated from few doses
obsValue: 65.5 nM
